# EXPERIMENT: Approximate solubility of Compound I-1-Acid in different solvents (manual dilution, visual observation)
# Format: physicochemical
# ASSAY_CONDITIONS: N-methyl pyrrolidone; room temperature
Residues, ends and D or L forms follow the SMILES beside them. *: point of attachment. Palmitoyl = CCCCCCCCCCCCCCCC(=O)*
QUANTITY: solubility

CCCCCCCCCCCCCCCC(=O)N1CCC[C@H]1C(=O)N1CCC[C@H]1C(=O)NCC(=O)N[C@@H](Cc1ccc(O)cc1)C(=O)O [Compound I-1-Acid] (Palmitoyl-PPGY-OH) :: 1000 to 5000 µg/mL

---

# EXPERIMENT: Aqueous solubility of Compound I-1 in the presence of excipients
# Type: physicochemical
# ASSAY_CONDITIONS: water with Cremophor RH 40 1% (w/v), 25° C., HPLC
Residues, ends and D or L forms follow the SMILES beside them. *: point of attachment. Palmitoyl = CCCCCCCCCCCCCCCC(=O)*
QUANTITY: solubility at 24 h

CCCCCCCCCCCCCCCC(=O)N1CCC[C@H]1C(=O)N1CCC[C@H]1C(=O)NCC(=O)N[C@@H](Cc1ccc(O)cc1)C(=O)[O-].[Na+] [Compound I-1] (Palmitoyl-PPGY-OH) :: 231 mg/mL

---

# EXPERIMENT: Approximate solubility of Compound I-2 (amorphous) at room temperature
# Assay type: physicochemical
# ASSAY_CONDITIONS: 2-Methyl Tetrahydrofuran
# Description: The solubility of Compound I-2 (amorphous) at room temperature was tested using a method similar to those described in Examples 4 and 5. The solubility test results are described in Table 6.
Residues, ends and D or L forms follow the SMILES beside them. *: point of attachment. Palmitoyl = CCCCCCCCCCCCCCCC(=O)*
QUANTITY: solubility

CCCCCCCCCCCCCCCC(=O)N1CCC[C@H]1C(=O)N1CCC[C@H]1C(=O)NCC(=O)N[C@@H](Cc1ccc(O)cc1)C(=O)[O-].[K+] [Compound I-2 (amorphous)] (Palmitoyl-PPGY-OH) :: < 1 mg/mL

---

# EXPERIMENT: Solubility of amorphous, Form A and Form E of Compound I-1 in water (shaken at 25° C., HPLC)
# Type: physicochemical
# ASSAY_CONDITIONS: water; time point 1 hour
Residues, ends and D or L forms follow the SMILES beside them. *: point of attachment. Palmitoyl = CCCCCCCCCCCCCCCC(=O)*
QUANTITY: solubility at 1 h

CCCCCCCCCCCCCCCC(=O)N1CCC[C@H]1C(=O)N1CCC[C@H]1C(=O)NCC(=O)N[C@@H](Cc1ccc(O)cc1)C(=O)[O-].[Na+] [Compound I-1 (Amorphous)] (Palmitoyl-PPGY-OH) :: > 200 mg/mL

---

# EXPERIMENT: Approximate solubility of Compound I-2 (amorphous) at room temperature
# Assay type: physicochemical
# ASSAY_CONDITIONS: Tetrahydrofuran
Residues, ends and D or L forms follow the SMILES beside them. *: point of attachment. Palmitoyl = CCCCCCCCCCCCCCCC(=O)*
QUANTITY: solubility

CCCCCCCCCCCCCCCC(=O)N1CCC[C@H]1C(=O)N1CCC[C@H]1C(=O)NCC(=O)N[C@@H](Cc1ccc(O)cc1)C(=O)[O-].[K+] [Compound I-2 (amorphous)] (Palmitoyl-PPGY-OH) :: < 1000 µg/mL
